Molecular target: Ubiquitin carboxyl-terminal hydrolase 7 (Homo sapiens)
Sequence (Q93009 whole entry): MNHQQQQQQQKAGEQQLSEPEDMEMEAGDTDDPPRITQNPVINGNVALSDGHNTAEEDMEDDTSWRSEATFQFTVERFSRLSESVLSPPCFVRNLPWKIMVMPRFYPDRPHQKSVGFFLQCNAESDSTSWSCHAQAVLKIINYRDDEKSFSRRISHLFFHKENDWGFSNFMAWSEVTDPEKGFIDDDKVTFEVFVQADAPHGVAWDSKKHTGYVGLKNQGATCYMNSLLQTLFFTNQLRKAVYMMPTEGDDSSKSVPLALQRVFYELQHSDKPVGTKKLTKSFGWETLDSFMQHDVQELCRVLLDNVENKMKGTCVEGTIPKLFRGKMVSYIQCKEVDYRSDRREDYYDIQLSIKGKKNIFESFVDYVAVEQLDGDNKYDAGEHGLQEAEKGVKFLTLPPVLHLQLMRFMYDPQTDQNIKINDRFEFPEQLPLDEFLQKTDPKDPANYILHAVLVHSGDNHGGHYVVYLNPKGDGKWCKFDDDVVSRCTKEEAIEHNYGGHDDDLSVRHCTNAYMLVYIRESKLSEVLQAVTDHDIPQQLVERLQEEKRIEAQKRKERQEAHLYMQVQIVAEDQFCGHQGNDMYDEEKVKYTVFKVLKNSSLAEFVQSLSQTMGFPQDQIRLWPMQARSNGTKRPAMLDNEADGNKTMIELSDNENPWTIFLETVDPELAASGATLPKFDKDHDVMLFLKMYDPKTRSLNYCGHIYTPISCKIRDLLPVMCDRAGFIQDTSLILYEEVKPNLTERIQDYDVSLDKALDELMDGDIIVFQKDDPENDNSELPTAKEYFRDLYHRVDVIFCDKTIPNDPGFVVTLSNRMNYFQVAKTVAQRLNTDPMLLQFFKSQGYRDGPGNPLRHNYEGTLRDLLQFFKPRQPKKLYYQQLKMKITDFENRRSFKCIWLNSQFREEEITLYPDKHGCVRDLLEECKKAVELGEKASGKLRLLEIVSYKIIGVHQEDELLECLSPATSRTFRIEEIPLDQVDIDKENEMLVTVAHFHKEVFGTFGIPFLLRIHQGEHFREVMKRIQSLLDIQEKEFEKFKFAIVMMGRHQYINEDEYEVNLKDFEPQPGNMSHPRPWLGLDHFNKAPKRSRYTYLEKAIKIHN
Assay: Inhibition of USP7 (unknown origin)
Quantity measured: pIC50
One number for each entry, as −log10 of the molar value.

• CC1=CS(=O)(=O)c2cc(NC(=O)c3cc([N+](=O)[O-])c(Sc4c(Cl)cncc4Cl)s3)ccc21 = 6.77
• O=C(Nc1ccc2c(c1)S(=O)(=O)CC2)c1cc([N+](=O)[O-])c(Sc2c(Cl)cncc2Cl)s1 = 6.89
• O=C(Nc1ccc2c(c1)S(=O)(=O)C=C2)c1cc([N+](=O)[O-])c(Sc2c(Cl)cncc2Cl)s1 = 7.00
• CC(=O)c1cnc(Sc2c(Cl)cncc2Cl)s1 = 4.65
• O=C(Nc1cccc(CN2CCCC2)c1)c1ccc2nc3c(c(Cl)c2c1)CCCC3 = 5.09

Please report pIC50 for every entry that follows.
1. CC1CS(=O)(=O)c2cc(NC(=O)c3cc([N+](=O)[O-])c(Sc4c(Cl)cncc4Cl)s3)ccc21 (configuration not stated)
2. CN(C)CCCNC1CS(=O)(=O)c2cc(NC(=O)c3cc([N+](=O)[O-])c(Sc4c(Cl)cncc4Cl)s3)ccc21 (configuration not stated)

7.12
6.70

Values from ChEMBL document CHEMBL4118084
